assay.comment: Carotenoid content of Lycopene Suspension-supplemented diets after 7 months storage
Format: physicochemical
protocol.conditions: Diet 5, 0.10 mM/kg diet, stored at −20 °C for 7 months
Attribute: Carotenoid content of diet
measure.name: Carotenoid content of diet

# compound, obs.value
records = [
    ("CC1=C(/C=C/C(C)=C/C=C/C(C)=C/C=C/C=C(C)/C=C/C=C(C)/C=C/C2=C(C)CCCC2(C)C)C(C)(C)CCC1", "8 μg/gm (ppm)"),
    ("CC(C)=CCC/C(C)=C/CC/C(C)=C/C=C/C(C)=C/C=C/C=C(\\C)CC/C=C(\\C)CC/C=C(\\C)CCC=C(C)C", "2 μg/gm (ppm)"),
    ("CC(C)=CCC/C(C)=C/C=C/C(C)=C/C=C/C(C)=C/C=C/C=C(C)/C=C/C=C(C)/C=C/C1C(C(C)(C)O)CCC1(C)O (stereo not drawn)", "0.14 μg/gm (ppm)"),
]

Values from patent US20040191297A1
